- tgt: 5'-methylthioadenosine/S-adenosylhomocysteine nucleosidase (Vibrio cholerae serotype O1 (strain ATCC 39315 / El Tor Inaba N16961), UniProt Q9KPI8)
- Sequence (Q9KPI8 whole entry, one chain of several): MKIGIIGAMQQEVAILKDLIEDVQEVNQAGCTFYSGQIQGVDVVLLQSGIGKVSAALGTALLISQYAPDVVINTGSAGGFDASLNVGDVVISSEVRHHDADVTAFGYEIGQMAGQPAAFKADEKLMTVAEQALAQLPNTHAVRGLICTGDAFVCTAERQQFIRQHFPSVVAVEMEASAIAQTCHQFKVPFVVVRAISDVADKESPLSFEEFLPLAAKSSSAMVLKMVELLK
- assayMethodText: Binding affinity to His-tagged Vibrio cholerae recombinant MTAN expressed in Escherichia coli […]
measuredEndpoint: Kd

// below: answered molecules
Form: molecule = Nc1ncnc2c([C@@H]3N[C@H](CSc4ccc(Cl)cc4)[C@@H](O)[C@H]3O)c[nH]c12 ; Kd = 2.2 nM

get_value(item= Nc1ncnc2c([C@@H]3N[C@H](CSCc4ccccc4)[C@@H](O)[C@H]3O)c[nH]c12 , readout=Kd) returns 2.1 nM

The reported Kd of the molecule Nc1ncnc2c(CN3C[C@H](CSCc4ccccc4)[C@@H](O)C3)c[nH]c12 was 0.064 nM

get_value(item= CCSC[C@H]1N[C@@H](c2c[nH]c3c(N)ncnc23)[C@H](O)[C@@H]1O , readout=Kd) returns 1.6 nM

# Kd (molecule: CSC[C@H]1N[C@@H](c2c[nH]c3c(N)ncnc23)[C@H](O)[C@@H]1O ) is 10 nM

***
Recorded Kd (molecule Nc1ncnc2c(CN3C[C@H](CSc4ccc(Cl)cc4)[C@@H](O)C3)c[nH]c12 ): 0.33 nM

====

- assayMethodText: Inhibition of Escherichia coli MTAN
measuredEndpoint: pKd
Schema: pKd number; meaning minus log10 of the concentration expressed in molar units.

Example results:
// pKd value for CCCCSC[C@H]1CN(Cc2c[nH]c3c(N)ncnc23)C[C@@H]1O : 12.52

Summary for this compound, Nc1ncnc2c(CN3C[C@H](CSc4ccc(Cl)cc4)[C@@H](O)C3)c[nH]c12 : pKd is 13.33

Continuing:
Lab note: measured pKd of CSC[C@H]1CN(Cc2c[nH]c3c(N)ncnc23)C[C@@H]1O was 12.70

====

- tgt: 5'-methylthioadenosine/S-adenosylhomocysteine nucleosidase (Escherichia coli O157:H7, UniProt P0AF14)
- Sequence (P0AF14 whole entry): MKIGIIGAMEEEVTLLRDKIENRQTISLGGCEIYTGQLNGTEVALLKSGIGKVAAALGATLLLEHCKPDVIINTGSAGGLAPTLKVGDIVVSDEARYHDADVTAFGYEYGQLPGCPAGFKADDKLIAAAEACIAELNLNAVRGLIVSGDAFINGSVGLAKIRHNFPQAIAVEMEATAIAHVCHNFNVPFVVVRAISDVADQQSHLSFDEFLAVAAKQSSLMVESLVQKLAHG
- assayMethodText: Inhibition of Escherichia coli O157:H7 EDL933 MTAN-mediated autoinducer-2 production assessed as inhibition of light induction in quorum-sensing Vibrio harveyi BB120 by luminescence induction assay
measuredEndpoint: IC50 (nM)
Note: unit nM is implicit; provide only the numeric part.

Just so you know, measured IC50 for CSC[C@H]1CN(Cc2c[nH]c3c(N)ncnc23)C[C@@H]1O came out at 600

These data points were gathered from ChEMBL document CHEMBL1240343.
